Where these numbers come from: PubChem BioAssay

target: Torsin-1A (Homo sapiens); test: small-molecule binders of mutant TOR1A in lysate, primary screen, cell lysate, small-molecule microarray, COS7 lysate, 635/667 nm fluorescence (AID 1150); conditions: COS7 hTOR1A mutant lysate, 635 nm fluorescence, higher = more signal;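 note: score pools 667 nm emission and signal to noise measuring lysate protein binding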
I'd appreciate it if you could supply composite z-score values for the items below.
I only need the number, thanks.

What the record says about C[N+](C)(C)CCCC[C@@H]1NC(=O)[C@H]2C[C@@H](C(=O)NCCCCCN)[C@@H](c3cccc(OCCO)c3)N2C1=O : composite z-score is 1.7

What the record says about CC(C)CCC[C@@H](C)[C@H]1CC[C@@]2(C)C3=C(CC[C@]12C)[C@@]1(C)CC[C@H](OC(=O)CCl)C(C)(C)C1CC3 (stereo not given in full) : composite z-score is 0.358

What the record says about COC(=O)C(CC#Cc1ccc2c(c1)[C@]1(C(=O)N2)[C@H](c2ccccc2OCCO)N2[C@H](c3ccccc3)[C@H](c3ccccc3)OC(=O)[C@H]2[C@@H]1C(=O)N1CCCCCCC1)C(=O)OC : composite z-score is 3.23

What the record says about C=C(CCCC)/C(=C/C[C@@H](OC(=O)c1ccncc1)c1ccc(OCCO)cc1)c1cnc2ccccc2c1 : composite z-score is 0.653

What the record says about [N-]=[N+]=Nc1ccccc1[C@H]1OC(c2ccc(OCCCO)cc2)=N[C@@]1(Cc1ccccc1)C(N)=O : composite z-score is 0.622

----------
test: basal RPMI8226 mitochondrial membrane potential changes, profiling panel, cell-based, JC-1 fluorescence, 24 h, 100 nL compound (AID 1169); conditions: RPMI8226 myeloma, JC-1 mitochondrial potential fluorescence, higher = more signal; note: test concentration not given here
Criterion: z-score meeting or surpassing -0.7. Met: fulfilled. Not met: not fulfilled.

Does the reported z-score for O=C(O)[C@H]1C[C@H]2C(=O)N[C@@H](Cc3ccccc3)C(=O)N2[C@H]1c1ccc(O)cc1 fall at or above the -0.7 mark?
not fulfilled

Does the reported z-score for NC(=O)NCC#Cc1ccc2c(c1)[C@]1(C(=O)N2)[C@H](c2ccc(OCCO)cc2)N2[C@H](c3ccccc3)[C@H](c3ccccc3)OC(=O)[C@H]2[C@@H]1C(=O)Nc1nc2ccccc2s1 fall at or above the -0.7 mark?
not fulfilled

Does the reported z-score for COc1ccc([Si](C)(C)[C@@H]2[C@@H](CCn3cc(CCO)nn3)O[C@]3(C(=O)N(Cc4ccc(N5C(=O)c6cccc7cccc5c67)cc4)c4ccccc43)[C@H]2C)cc1 fall at or above the -0.7 mark?
not fulfilled

Does the reported z-score for COc1ccc([Si](C)(C)[C@H]2[C@H](CC(=O)N3Cc4ccccc4C[C@H]3CO)O[C@@]3(C(=O)N(Cc4cccc(N5C(=O)COc6ccccc65)c4)c4ccccc43)[C@@H]2C)cc1 fall at or above the -0.7 mark?
not fulfilled

Does the reported z-score for O=C(NC1CC1)[C@@H]1c2ccccc2C(=O)N(Cc2ccccc2C(F)(F)F)[C@H]1c1ccc(CO)cc1 fall at or above the -0.7 mark?
fulfilled

Does the reported z-score for C=CCNC(=O)[C@H]1[C@@H]2C(=O)O[C@@H](c3ccccc3)[C@@H](c3ccccc3)N2[C@@H](c2ccccc2OCCO)[C@]12C(=O)N(C(=O)OCCOC)c1ccc(C#CCCO)cc12 fall at or above the -0.7 mark?
not fulfilled

Does the reported z-score for COC(=O)C1=CC(CCCO)=CC(C2CC2)N(Cc2cc3c(cc2Br)OCO3)C=C1C(=O)OC (stereo not given) fall at or above the -0.7 mark?
fulfilled

Does the reported z-score for CO[C@H]1O[C@H](CO)[C@@H](OC(=O)Nc2ccccc2)[C@H](OC(=O)Nc2ccc3c(c2)OCO3)[C@H]1OC(=O)Nc1ccc2c(c1)OCO2 fall at or above the -0.7 mark?
fulfilled

Does the reported z-score for NCCCCCNC(=O)[C@H]1C[C@H]2C(=O)NCC(=O)N2[C@H]1c1ccc(O)cc1 fall at or above the -0.7 mark?
not fulfilled
